Where do these numbers come from? They come from patent US20210238260.

target: Factor X (FX), P00742
Sequence (P00742 whole entry, looked up): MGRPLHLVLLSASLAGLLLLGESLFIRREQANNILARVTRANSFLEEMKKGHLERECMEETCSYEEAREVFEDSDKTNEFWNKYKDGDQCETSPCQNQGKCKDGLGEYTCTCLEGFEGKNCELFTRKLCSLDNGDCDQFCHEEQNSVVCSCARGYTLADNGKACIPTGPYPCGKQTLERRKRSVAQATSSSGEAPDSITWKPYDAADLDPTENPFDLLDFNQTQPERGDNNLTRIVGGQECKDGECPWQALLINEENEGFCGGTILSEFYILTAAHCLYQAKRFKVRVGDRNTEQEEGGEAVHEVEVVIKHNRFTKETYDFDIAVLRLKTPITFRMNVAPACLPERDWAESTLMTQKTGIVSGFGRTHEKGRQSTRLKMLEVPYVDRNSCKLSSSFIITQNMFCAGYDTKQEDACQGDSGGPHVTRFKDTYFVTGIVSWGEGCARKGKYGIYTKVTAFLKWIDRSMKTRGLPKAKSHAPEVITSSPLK
readoutLabel: KM (FX activation by FIXa in the Xase complex with FVIIIa, PC/PS vesicles and Ca2+)

1) FIXa Y155F/K247N/N249S/R318Y/R338E/R403E/E410N (protein) chain 1: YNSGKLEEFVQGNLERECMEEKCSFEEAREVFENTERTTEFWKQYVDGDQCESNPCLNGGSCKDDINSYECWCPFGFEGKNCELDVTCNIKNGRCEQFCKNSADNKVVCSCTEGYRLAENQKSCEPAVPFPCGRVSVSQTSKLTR chain 2: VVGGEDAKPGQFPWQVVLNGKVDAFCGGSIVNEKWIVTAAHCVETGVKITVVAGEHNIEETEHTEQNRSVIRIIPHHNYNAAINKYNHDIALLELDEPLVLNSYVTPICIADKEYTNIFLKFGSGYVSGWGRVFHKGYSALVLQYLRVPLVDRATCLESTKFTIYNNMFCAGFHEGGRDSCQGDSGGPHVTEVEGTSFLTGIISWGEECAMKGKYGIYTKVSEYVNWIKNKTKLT
0.0363 µM
2) FIXa D104N/K106S/K228N/K247N/N249S (protein) chain 1: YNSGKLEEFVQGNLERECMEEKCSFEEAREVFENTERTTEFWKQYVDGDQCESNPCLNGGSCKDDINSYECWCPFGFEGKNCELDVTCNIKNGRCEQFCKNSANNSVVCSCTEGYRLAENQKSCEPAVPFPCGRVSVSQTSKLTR chain 2: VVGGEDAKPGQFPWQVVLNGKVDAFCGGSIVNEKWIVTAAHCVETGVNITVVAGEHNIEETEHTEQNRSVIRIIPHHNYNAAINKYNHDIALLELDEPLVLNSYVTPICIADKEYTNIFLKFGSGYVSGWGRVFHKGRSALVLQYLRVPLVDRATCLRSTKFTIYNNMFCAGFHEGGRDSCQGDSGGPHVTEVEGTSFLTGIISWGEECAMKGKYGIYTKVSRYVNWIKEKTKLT
0.0771 µM
